Property: TNFα Neutralization Assay IC50 nM (L929 cells); scope: individual binders
biological target: Recombinant Human TNF-α/TNFSF1A (human, UniProt P01375 77-233); experiment: cell-based or functional assay
Sequence (P01375 77-233 limits assumed): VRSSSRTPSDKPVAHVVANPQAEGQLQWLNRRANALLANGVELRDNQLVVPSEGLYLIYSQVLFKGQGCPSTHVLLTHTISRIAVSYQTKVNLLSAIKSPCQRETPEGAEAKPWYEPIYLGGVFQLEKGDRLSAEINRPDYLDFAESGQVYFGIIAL
QUANTITY KIND: TNFα Neutralization Assay IC50 nM (L929 cells) (nM)

BINDER	VALUE QUALIFIER	OBSERVED MEASUREMENT
AB381 (antibody, V domains shown, Full-length humanized antibody made in HEK 293-6E; also called hMAK199VH.2b/hMAK199VL.1) VH: EIQLVQSGAEVKKPGASVKVSCKASGYTFTNYGMNWVRQAPGQGLEWMGWINTYTGEPTYADDFKGRVTFTTDTSTSTAYMELSSLRSEDTAVYYCARKFLTTVVVTDYAMDYWGQGTTVTVSS VL: DIQMTQSPSSLSASVGDRVTITCRASQDISNYLNWYQQKPGKAPKLLIYYTSRLQSGVPSRFSGSGSGTDFTLTISSLQPEDFATYYCQQGNTLPPTFGQGTKLEIK	=	5.9
AB374 (antibody, V domains shown, Full-length humanized antibody made in HEK 293-6E; also called hMAK199VH.2/hMAK199VL.2b) VH: EVQLVQSGAEVKKPGASVKVSCKASGYTFTNYGMNWVRQAPGQGLEWMGWINTYTGEPTYADDFKGRVTMTTDTSTSTAYMELSSLRSEDTAVYYCARKFLTTVVVTDYAMDYWGQGTTVTVSS VL: DIVMTQSPAFLSVTPGEKVTITCRASQDISNYLNWYQQKPDQAPKLLIYYTSRLQSGVPSRFSGSGSGTDYTFTISSLEAEDAATYYCQQGNTLPPTFGQGTKLEIK	>	20
AB352 (antibody, V domains shown, Full-length humanized antibody made in HEK 293-6E; also called hMAK199VH.1/hMAK199VL.1a) VH: EVQLVQSGSELKKPGASVKVSCKASGYTFTNYGMNWVRQAPGQGLEWMGWINTYTGEPTYADDFKGRFVFSLDTSVSTAYLQISSLKAEDTAVYYCARKFLTTVVVTDYAMDYWGQGTTVTVSS VL: DIQMTQSPSSLSASVGDRVTITCRASQDISNYLNWYQQKPGKTVKLLIYYTSRLQSGVPSRFSGSGSGTDYTLTISSLQPEDFATYFCQQGNTLPPTFGQGTKLEIK	=	0.35
AB357 (antibody, V domains shown, Full-length humanized antibody made in HEK 293-6E; also called hMAK199VH.1a/hMAK199VL.1) VH: EIQLVQSGSELKKPGASVKVSCKASGYTFTNYGMNWVRQAPGQGLEWMGWINTYTGEPTYADDFKGRFVFSLDTSVSTAYLQISSLKAEDTAVYFCARKFLTTVVVTDYAMDYWGQGTTVTVSS VL: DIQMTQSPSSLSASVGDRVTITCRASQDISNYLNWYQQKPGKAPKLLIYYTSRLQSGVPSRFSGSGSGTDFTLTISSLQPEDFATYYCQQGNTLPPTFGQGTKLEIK	=	1.94
AB382 (antibody, V domains shown, Full-length humanized antibody made in HEK 293-6E; also called hMAK199VH.2b/hMAK199VL.1a) VH: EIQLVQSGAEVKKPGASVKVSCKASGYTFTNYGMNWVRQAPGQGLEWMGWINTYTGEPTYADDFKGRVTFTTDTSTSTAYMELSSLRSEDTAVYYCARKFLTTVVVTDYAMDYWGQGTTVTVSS VL: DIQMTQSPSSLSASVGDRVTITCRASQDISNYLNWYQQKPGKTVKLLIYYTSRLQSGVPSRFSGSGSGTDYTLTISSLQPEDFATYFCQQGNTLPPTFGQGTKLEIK	=	1.19
AB365 (antibody, V domains shown, Full-length humanized antibody made in HEK 293-6E; also called hMAK199VH.1b/hMAK199VL.1b) VH: EVQLVQSGSELKKPGASVKVSCKASGYTFTNYGMNWVRQAPGQGLEWMGWINTYTGEPTYADDFKGRFVFSLDTSVSTAYLQISSLKAEDTAVYFCARKFLTTVVVTDYAMDYWGQGTTVTVSS VL: DIQMTQSPSSLSASVGDRVTITCRASQDISNYLNWYQQKPGKAPKLLIYYTSRLQSGVPSRFSGSGSGTDYTLTISSLQPEDFATYYCQQGNTLPPTFGQGTKLEIK	=	1.52
AB364 (antibody, V domains shown, Full-length humanized antibody made in HEK 293-6E; also called hMAK199VH.1b/hMAK199VL.1a) VH: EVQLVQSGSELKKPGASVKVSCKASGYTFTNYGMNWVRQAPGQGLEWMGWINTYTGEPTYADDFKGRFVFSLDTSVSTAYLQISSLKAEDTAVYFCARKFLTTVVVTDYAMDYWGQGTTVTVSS VL: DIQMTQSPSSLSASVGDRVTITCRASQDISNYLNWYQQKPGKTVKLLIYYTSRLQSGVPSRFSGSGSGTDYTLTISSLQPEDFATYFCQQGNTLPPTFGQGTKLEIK	=	0.35
AB361 (antibody, V domains shown, Full-length humanized antibody made in HEK 293-6E; also called hMAK199VH.1a/hMAK199VL.2a) VH: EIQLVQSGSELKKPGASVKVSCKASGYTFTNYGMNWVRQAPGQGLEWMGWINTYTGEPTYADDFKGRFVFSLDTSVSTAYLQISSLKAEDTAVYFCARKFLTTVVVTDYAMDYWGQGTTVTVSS VL: DIVMTQSPAFLSVTPGEKVTITCRASQDISNYLNWYQQKPDQTVKLLIYYTSRLQSGVPSRFSGSGSGTDYTFTISSLEAEDAATYFCQQGNTLPPTFGQGTKLEIK	=	0.82
AB355 (antibody, V domains shown, Full-length humanized antibody made in HEK 293-6E; also called hMAK199VH.1/hMAK199VL.2a) VH: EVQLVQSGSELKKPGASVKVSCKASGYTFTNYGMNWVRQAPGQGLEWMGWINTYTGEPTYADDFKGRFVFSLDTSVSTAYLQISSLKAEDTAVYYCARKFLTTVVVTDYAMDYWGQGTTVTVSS VL: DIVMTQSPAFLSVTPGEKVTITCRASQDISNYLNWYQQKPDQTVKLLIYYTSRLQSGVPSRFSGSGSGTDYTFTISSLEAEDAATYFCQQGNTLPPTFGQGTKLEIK	=	1.9
